Where do these numbers come from? They come from patent US10800791B2.

Give MIC for every item shown.
Tested on: C. krusei
assay_remarks: Antifungal Activity Assay (broth microtiter MIC), C. krusei
Assay type: cell-based, Candida krusei
assay_conditions: Pichia kudriavzevii, ATCC6258, 48 h, Table 3b (additional results); ATCC 6258; 3 replicates; MIC recorded at 48 h; read-out: MIC, C. krusei ATCC 6258

Memo: `COc1ccc(F)cc1[C@H](Cn1c(=O)n(C(C)(C)C(N)=O)c(=O)c2c(C)c(-n3nccn3)sc21)OC1CCC(=O)CC1` , reported MIC: 0.25 to 1 µg/mL

Memo: `Cc1c(-n2nccn2)sc2c1c(=O)n(C(C)(C)C(=O)NC(C)C)c(=O)n2C[C@H](OC1CCOCC1)c1cc(F)ccc1OCCO` , reported MIC: 0.06 to 0.249 µg/mL

Memo: `Cc1c(-n2nccn2)sc2c1c(=O)n(C(C)(C)C(=O)NC(C)C)c(=O)n2C[C@H](OCCO)c1cc(F)ccc1OCc1ccccc1` , reported MIC: 1.01 to 2 µg/mL

Memo: `COc1ccc(F)cc1[C@@H](Cn1c(=O)n(C(C)(C)C(=O)NC(C)C)c(=O)c2c(C)c(-n3nccn3)sc21)OC(=O)CO` , reported MIC: 0.06 to 0.249 µg/mL

Memo: `CCc1ccc(F)cc1[C@H](Cn1c(=O)n(C(C)(C)C(=O)NC(C)C)c(=O)c2c(C)c(-n3nccn3)sc21)OC[C@H](C)C#N` , reported MIC: > 4.01 µg/mL

Memo: `COc1ccc(F)cc1[C@H](Cn1c(=O)n(C(C)(C)C(N)=O)c(=O)c2c(C)c(-n3nccn3)sc21)OCCC(=O)C(F)(F)F` , reported MIC: > 4.01 µg/mL
